# testedSystem: GRK2 (Homo sapiens)
# Sequence (P25098 1-689): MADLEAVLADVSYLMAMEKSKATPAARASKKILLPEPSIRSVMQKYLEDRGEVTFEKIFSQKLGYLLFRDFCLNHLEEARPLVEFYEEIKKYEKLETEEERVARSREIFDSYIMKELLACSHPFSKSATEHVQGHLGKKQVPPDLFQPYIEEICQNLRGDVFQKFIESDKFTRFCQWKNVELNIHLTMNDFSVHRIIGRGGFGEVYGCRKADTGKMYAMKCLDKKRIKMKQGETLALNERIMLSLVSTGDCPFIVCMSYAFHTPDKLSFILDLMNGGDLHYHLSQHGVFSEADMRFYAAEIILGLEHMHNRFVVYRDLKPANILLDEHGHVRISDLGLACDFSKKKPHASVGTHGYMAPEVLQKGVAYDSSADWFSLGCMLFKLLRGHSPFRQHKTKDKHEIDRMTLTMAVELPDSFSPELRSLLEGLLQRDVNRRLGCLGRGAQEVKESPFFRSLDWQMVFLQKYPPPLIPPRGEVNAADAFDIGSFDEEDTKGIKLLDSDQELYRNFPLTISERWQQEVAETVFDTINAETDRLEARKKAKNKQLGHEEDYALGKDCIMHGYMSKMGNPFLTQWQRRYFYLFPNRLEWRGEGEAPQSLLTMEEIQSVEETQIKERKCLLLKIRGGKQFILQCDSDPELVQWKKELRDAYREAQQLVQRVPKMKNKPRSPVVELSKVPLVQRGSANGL
# protocolDetails: GRK2 Degradation Assay and Western Blot in PAXF1657 cells
# Type: cell-based
# Parameters: endogenous in cells; host or cells: PAXF1657
# assayContext: 3 uM, PAXF1657 EV, 24 hrs; read-out: % GRK2 degradation at 3 uM in PAXF1657 EV (24 hrs)
Reported inhibition at 3 µM is given for each of the following molecules.
Your answer should be a number followed by the unit of measure.

| molecule | inhibition at 3 µM |
| --- | --- |
| Cc1ncsc1-c1ccc(CNC(=O)[C@@H]2C[C@@H](O)CN2C(=O)[C@@H](NC(=O)CCOCCOCCOCCNC(=O)CCCCOc2cccc(CNC(=O)c3cccc(NCc4nnc(-c5ccncn5)n4C)c3)c2)C(C)(C)C)cc1 | -2% |
| C[C@@H](NC(=O)c1cccc(NCc2nnc(-c3ccncn3)n2C)c1)c1cccc(OCCCCCCOCCOCCOCCCCCC(=O)Nc2cccc3c2CN(C2CCC(=O)NC2=O)C3=O)c1 (some centres unmarked) | 85% |
| Cc1ncsc1-c1ccc(CNC(=O)[C@@H]2C[C@@H](O)CN2C(=O)[C@@H](NC(=O)CCCCCOCCOCCOCCCCCCOc2ccc(C(F)(F)F)c(CNC(=O)c3cccc(NCc4nnc(-c5ccncn5)n4C)c3)c2)C(C)(C)C)cc1 | 5% |
| Cc1ncsc1-c1ccc(CNC(=O)[C@@H]2C[C@@H](O)CN2C(=O)[C@@H](NC(=O)CCCCCCOc2cccc(CNC(=O)c3cccc(NCc4nnc(-c5ccncn5)n4C)c3)c2)C(C)(C)C)cc1 | 6% |

Moving on to another molecule below.
Q) Recorded inhibition at 3 µM of `Cc1ncsc1-c1ccc(CNC(=O)[C@@H]2C[C@@H](O)CN2C(=O)[C@@H](NC(=O)CCCCc2cn(CCCCCOc3cccc(CNC(=O)c4cccc(NCc5nnc(-c6ccncn6)n5C)c4)c3)nn2)C(C)(C)C)cc1` , please.
A) 23%

Origin of the recorded values: patent US20240174637A1
